# System: Mus musculus
# PROTOCOL SUMMARY: Neurotoxicity in Mus musculus C57B/6 (mouse) assessed as minimal motor impairment at 300 mg/kg, ip after 4 hr
# Format: toxicity, organism-based
# Set-up: dose 300 mg/kg, route intraperitoneal
# RUN CONDITIONS: in vivo

- MOLECULE: "O=C(N/N=C/c1cccc(F)c1)c1ccncc1"
  Activity: "Non-toxic"
- MOLECULE: "CCOc1ccccc1/C=N/NC(=O)c1ccncc1"
  Activity: "Non-toxic"
- MOLECULE: "O=C(N/N=C/c1ccccc1)c1ccncc1 [N'-BENZYLIDENE ISONICOTINOHYDRAZIDE]"
  Activity: "Non-toxic"
- MOLECULE: "O=C(NN=C(c1ccccc1)c1ccccc1)c1ccncc1"
  Activity: "Non-toxic"

---

# PROTOCOL SUMMARY: Neurotoxicity in ip dosed Mus musculus C57B/6 (mouse) assessed as minimal motor impairment after 4 hr
# Format: toxicity, organism-based
# RUN CONDITIONS: in vivo

- COMPOUND: "O=C(N/N=C(\\c1ccccc1)c1ccc(Br)cc1)c1ccncc1"
  RESULT UNIT: "mg/kg"
  MTD at 4 h: 100
- COMPOUND: "C/C(=N\\NC(=O)c1ccncc1)c1ccccc1 [ISONICOTINOYLHYDRAZONE OF ACETOPHENONE]"
  RESULT UNIT: "mg/kg"
  MTD at 4 h: 300
- COMPOUND: "CN(C)c1ccc(/C=N/NC(=O)c2ccncc2)cc1"
  RESULT UNIT: "mg/kg"
  MTD at 4 h: 300

Reference source for all entries: ChEMBL document CHEMBL3045135
